Cited source: PubChem BioAssay (NCI)

System: M14 melanoma
ASSAY_COMMENT: NCI tumour cell line growth inhibition, 48 h; in the data active means GI50 below about 0.43 µM; inactive means the rest
Tick one outcome: 1 (yes) = active, 0 (no) = inactive

Below are worked cases with known answers.
Cc1ccccc1NC(=S)Nc1ccccn1: 0 (no)
COc1cccc2c1C(=O)c1c(O)c3c(c(O)c1C2=O)CC(O)(C(C)=O)CC3OC1CC(N)C(O)C(C)O1 (stereo unspecified): 0 (no)
CC1=C([Se]CC(OC(=O)[C@@H](CSSC(C)(C)C)NC(=O)OC(C)(C)C)C(=O)NC(C)(C)C)C(=O)c2ccccc2C1=O (stereo partly specified): 0 (no)
O=C(/C=C/c1ccc(B(O)O)cc1)/C=C/c1ccc(B(O)O)cc1: 0 (no)
C[n+]1c(/C=C\C=C\N2CCCCC2)sc2ccccc21: 0 (no)

Field: next compound
Check the results log: what was the call for COc1cccc([C@H]2CC(=O)c3cc4c(cc3N2)OCO4)c1 ?
1 (yes)

###

Tested on: CAKI-1 renal
ASSAY_COMMENT: NCI tumour cell line growth inhibition, 48 h
Exercise: for every item that follows, state its recorded TGI.
Answers are plain numbers, in µM.

Clc1ccc2c(SCC3CO3)c3ccccc3nc2c1 (stereo not given): 2.88
CC1=C(C(=O)NCc2ccccc2)C(c2ccc(C3C(C(=O)NCc4ccccc4)=C(C)NC(C)=C3C(=O)NCc3ccccc3)cc2)C(C(=O)NCc2ccccc2)=C(C)N1: 34.9
OCCOc1ccc(-c2cc(-c3ccccn3)nc(-c3ccccn3)c2)cc1: 17.7
Cc1cc(C)nc(NC(N)=NCCc2ccccc2)n1: 97.5
CCOC(=O)c1cccc(NC(=O)CCl)c1: 3.42

Looking for the measured TGI of O=C(c1ccccc1)c1c(NCC(O)CN2CCCC2)n(Cc2ccccc2)c(=O)n(Cc2ccccc2)c1=O (stereo not given) , can you help?
59

###

System: 786-0 renal
ASSAY_COMMENT: NCI tumour cell line growth inhibition, 48 h
EXPERIMENTAL_READOUT: TGI

C1CC2=C(C1)[Se]C(=C1Sc3nsnc3S1)[Se]2: > 100 µM
CCOc1ccccc1NC(=O)CCC(=O)OC: > 100 µM
O=C1C=CC2CCC1C2 (centres undefined): > 100 µM
O=C1Oc2ccccc2C(=O)/C1=C/N1C(=O)N/C(=C\c2ccccc2O)C1=O: > 100 µM
Cc1[nH]c2ncn(/N=C/c3ccccc3O)c(=N)c2c1Cc1ccccc1: > 100 µM
COc1cc2c(cc1O)C=NCC2: > 100 µM

For the 3 molecules below, give their TGI values.
1. O=C(O)CSCc1cccc2ccccc12
2. C=C1C(=O)OC2/C=C(\C)C(OC(C)=O)C3OC3C(C)(O)CC(OC(=O)/C(C)=C/C)C12 (centres undefined)
3. Cc1c2cnccc2c(C)c2c1c1cc(C3OCCCO3)ccc1n2C

> 100 µM
16.4 µM
3.25 µM

###

System: TK-10 renal
ASSAY_COMMENT: NCI tumour cell line growth inhibition, 48 h
Exercise: for every item that follows, state its recorded TGI.

CCN(CC)CCNC(=O)c1ccccc1NC(=O)C(=O)Nc1ccccc1C(=O)NCCN(CC)CC: > 100 µM

For the 8 compounds below, give their TGI values.
1. Cc1c2cc[nH]c(=O)c2c(C)c2c1[nH]c1cc(OCCN3CCN(C)CC3)ccc12
2. COc1cccc([C@H]2CC(=O)c3cc4c(cc3N2)OCO4)c1
3. [O-]/[N+](=C\c1ccccc1)[C@H](COCc1ccccc1)c1ccccc1
4. CC1=CC2CC(C)=C(CC[C@]3(C)CC[C@H]([C@@H](C)C(=O)O)OO3)C(C)(C)C2CC1 (stereo not given in full)
5. O=C1c2ccccc2C(=O)N1n1c(Cc2ccccc2)n[nH]c1=O
6. Cn1cnc([N+](=O)[O-])c1Sc1nc2cc(Cl)c(F)cc2[nH]1
7. CC(C)=CCN=C(N)N
8. O=C1C2CCCCC2C(=O)N1n1c(Cc2ccc(Cl)cc2)n[nH]c1=O (stereo not given)

1: 13.7 µM; 2: > 100 µM; 3: > 100 µM; 4: 3.15 µM; 5: > 100 µM; 6: 33 µM; 7: > 100 µM; 8: > 100 µM

Looking for the measured TGI of O=C(Cn1c(=O)oc2ccc(C(=O)c3ccc(F)cc3)cc21)c1ccc([N+](=O)[O-])cc1 , can you help?
> 100 µM
